# test_system: Serine/threonine-protein kinase SIK2 (Homo sapiens)
# Sequence (Q9H0K1 whole entry): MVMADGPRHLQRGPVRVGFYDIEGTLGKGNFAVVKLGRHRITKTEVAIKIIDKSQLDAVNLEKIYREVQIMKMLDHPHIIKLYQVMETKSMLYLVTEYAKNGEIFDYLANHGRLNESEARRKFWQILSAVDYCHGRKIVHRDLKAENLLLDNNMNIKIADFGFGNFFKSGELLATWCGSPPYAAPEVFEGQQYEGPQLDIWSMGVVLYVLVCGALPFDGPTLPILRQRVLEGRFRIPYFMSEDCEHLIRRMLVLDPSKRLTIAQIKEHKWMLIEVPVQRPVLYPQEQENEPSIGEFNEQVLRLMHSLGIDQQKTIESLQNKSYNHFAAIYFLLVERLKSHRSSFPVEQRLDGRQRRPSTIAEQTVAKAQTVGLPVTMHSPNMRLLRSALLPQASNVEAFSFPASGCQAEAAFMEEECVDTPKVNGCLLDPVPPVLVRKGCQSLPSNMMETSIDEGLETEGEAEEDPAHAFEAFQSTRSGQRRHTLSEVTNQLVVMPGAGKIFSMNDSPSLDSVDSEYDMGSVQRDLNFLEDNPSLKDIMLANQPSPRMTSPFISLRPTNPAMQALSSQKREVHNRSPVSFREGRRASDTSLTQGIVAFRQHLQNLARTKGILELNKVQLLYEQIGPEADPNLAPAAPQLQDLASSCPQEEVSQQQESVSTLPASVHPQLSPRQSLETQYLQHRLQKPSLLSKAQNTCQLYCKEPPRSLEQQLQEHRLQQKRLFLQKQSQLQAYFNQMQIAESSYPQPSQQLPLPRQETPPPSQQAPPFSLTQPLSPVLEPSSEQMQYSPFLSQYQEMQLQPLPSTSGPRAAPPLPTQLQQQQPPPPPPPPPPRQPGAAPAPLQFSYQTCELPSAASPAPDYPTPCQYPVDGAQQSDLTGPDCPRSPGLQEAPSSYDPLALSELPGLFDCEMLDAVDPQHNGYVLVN
assay_endpoint: IC50 (nM)
Numbers only; they are read as nM.

Field IC50 (Serine/threonine-protein kinase SIK2 (Homo sapiens)), entry COc1cc(N2CCC(N3CCN(C)CC3)CC2)ccc1Nc1ncc(Cl)c(Nc2ccccc2P(C)(C)=O)n1 : 466

* * *

# test_system: Serine/threonine-protein kinase MARK1 (Homo sapiens)
assay_endpoint: pIC50
Reminder that pIC50 means the negative base-10 logarithm of the concentration expressed in mol/L.

Summary: COc1cc(N2CCC(N3CCN(C)CC3)CC2)ccc1Nc1ncc(Cl)c(Nc2ccccc2P(C)(C)=O)n1 , Serine/threonine-protein kinase MARK1 (Homo sapiens), pIC50 = 6.90

* * *

# test_system: MAP kinase-interacting serine/threonine-protein kinase 1 (Homo sapiens, UniProt Q9BUB5, T385D)
# Sequence (Q9BUB5 whole entry T385D): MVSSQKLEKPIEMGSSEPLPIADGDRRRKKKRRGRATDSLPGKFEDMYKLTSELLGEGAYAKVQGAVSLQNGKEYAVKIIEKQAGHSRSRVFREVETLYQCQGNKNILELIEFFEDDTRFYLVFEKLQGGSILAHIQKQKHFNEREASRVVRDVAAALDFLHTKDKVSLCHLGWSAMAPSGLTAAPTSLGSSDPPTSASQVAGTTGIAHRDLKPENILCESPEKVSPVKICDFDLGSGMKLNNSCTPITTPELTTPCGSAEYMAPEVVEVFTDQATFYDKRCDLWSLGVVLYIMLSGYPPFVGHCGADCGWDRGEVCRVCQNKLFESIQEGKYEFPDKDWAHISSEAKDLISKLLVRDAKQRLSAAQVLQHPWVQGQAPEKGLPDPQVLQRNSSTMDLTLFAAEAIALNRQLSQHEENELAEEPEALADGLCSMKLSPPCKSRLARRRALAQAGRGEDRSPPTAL
# assay_details: Inhibition of human MNK1 T385D mutant using MBP as substrate in presence of [gamma33P]-ATP by HotSpot assay
assay_endpoint: pIC50
When answering, recall that pIC50 equals minus log10 of the concentration in mol/L, and write that number alone.

pIC50 reported for this compound COc1cc(N2CCC(N3CCN(C)CC3)CC2)ccc1Nc1ncc(Cl)c(Nc2ccccc2P(C)(C)=O)n1 [BRIGATINIB] : 7.06

* * *

# test_system: Receptor tyrosine-protein kinase erbB-4 (Homo sapiens, UniProt Q15303)
assay_endpoint: IC50 (nM)
Provide the reading as a plain figure in nM.

Log: Receptor tyrosine-protein kinase erbB-4 (Homo sapiens, UniProt Q15303), compound COc1cc(N2CCC(N3CCN(C)CC3)CC2)ccc1Nc1ncc(Cl)c(Nc2ccccc2P(C)(C)=O)n1 [BRIGATINIB] , IC50 = 27

* * *

# test_system: Ephrin type-A receptor 7 (Homo sapiens, UniProt Q15375)
pIC50: −log10 of the molar value.
assay_endpoint: pIC50

For record COc1cc(N2CCC(N3CCN(C)CC3)CC2)ccc1Nc1ncc(Cl)c(Nc2ccccc2P(C)(C)=O)n1 [BRIGATINIB] the listed pIC50 is < 6.00

* * *

# test_system: Proto-oncogene tyrosine-protein kinase receptor Ret (Homo sapiens, UniProt P07949, V804L)
# assay_details: Inhibition of human RET V804L mutant using RRRRRRRRRRRVYSTDYYRLFNPS as substrate in presence of [gamma33P]-ATP by HotSpot assay
assay_endpoint: pIC50
The value called pIC50 is obtained by taking minus log10 of the concentration in mol/L.

Fill in: Proto-oncogene tyrosine-protein kinase receptor Ret (Homo sapiens, UniProt P07949, V804L) pIC50 for COc1cc(N2CCC(N3CCN(C)CC3)CC2)ccc1Nc1ncc(Cl)c(Nc2ccccc2P(C)(C)=O)n1 [BRIGATINIB] = 7.57

* * *

# test_system: Tyrosine-protein kinase Fes/Fps (Homo sapiens)
assay_endpoint: pIC50
// pIC50 is dimensionless: -log10 of concentration (M)

// assay Tyrosine-protein kinase Fes/Fps (Homo sapiens), entry COc1cc(N2CCC(N3CCN(C)CC3)CC2)ccc1Nc1ncc(Cl)c(Nc2ccccc2P(C)(C)=O)n1 , pIC50 value = 8.46

* * *

# test_system: Serine/threonine-protein kinase Nek9 (Homo sapiens)
# Sequence (Q8TD19 whole entry): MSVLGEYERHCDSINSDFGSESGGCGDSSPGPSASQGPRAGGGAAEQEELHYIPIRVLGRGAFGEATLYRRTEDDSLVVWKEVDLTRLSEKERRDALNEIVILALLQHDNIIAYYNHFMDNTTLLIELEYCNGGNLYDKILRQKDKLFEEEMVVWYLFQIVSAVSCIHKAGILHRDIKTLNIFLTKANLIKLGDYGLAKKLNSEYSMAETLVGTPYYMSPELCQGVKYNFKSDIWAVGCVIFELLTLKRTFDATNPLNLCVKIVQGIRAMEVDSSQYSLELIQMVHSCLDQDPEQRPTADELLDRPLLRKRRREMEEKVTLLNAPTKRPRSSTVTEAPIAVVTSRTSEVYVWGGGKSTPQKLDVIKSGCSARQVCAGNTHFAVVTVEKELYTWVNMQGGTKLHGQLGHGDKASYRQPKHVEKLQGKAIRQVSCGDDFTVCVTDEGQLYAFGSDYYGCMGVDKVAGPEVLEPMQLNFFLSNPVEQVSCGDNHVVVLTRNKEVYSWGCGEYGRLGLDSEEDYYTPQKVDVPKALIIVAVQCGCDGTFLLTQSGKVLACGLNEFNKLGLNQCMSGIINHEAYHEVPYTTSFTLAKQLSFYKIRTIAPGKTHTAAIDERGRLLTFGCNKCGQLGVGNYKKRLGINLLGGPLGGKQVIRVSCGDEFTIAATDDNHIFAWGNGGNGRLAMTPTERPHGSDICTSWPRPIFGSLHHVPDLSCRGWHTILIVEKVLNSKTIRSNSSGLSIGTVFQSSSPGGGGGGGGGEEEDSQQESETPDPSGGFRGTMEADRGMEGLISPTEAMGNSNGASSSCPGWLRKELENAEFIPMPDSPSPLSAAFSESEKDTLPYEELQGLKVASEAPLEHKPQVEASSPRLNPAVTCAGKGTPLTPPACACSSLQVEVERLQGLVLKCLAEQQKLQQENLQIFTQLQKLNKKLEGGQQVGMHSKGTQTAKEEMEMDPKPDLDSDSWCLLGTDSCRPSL
pIC50: −log10 of the molar value.
assay_endpoint: pIC50

Reported pIC50 of COc1cc(N2CCC(N3CCN(C)CC3)CC2)ccc1Nc1ncc(Cl)c(Nc2ccccc2P(C)(C)=O)n1 : < 6.00

* * *

# test_system: BDNF/NT-3 growth factors receptor (Homo sapiens)
pIC50: −log10 of the molar value.
assay_endpoint: pIC50

Entry COc1cc(N2CCC(N3CCN(C)CC3)CC2)ccc1Nc1ncc(Cl)c(Nc2ccccc2P(C)(C)=O)n1 under BDNF/NT-3 growth factors receptor (Homo sapiens) had pIC50 of < 6.00

* * *

# test_system: Vascular endothelial growth factor receptor 2 (Homo sapiens)
# Sequence (P35968 whole entry): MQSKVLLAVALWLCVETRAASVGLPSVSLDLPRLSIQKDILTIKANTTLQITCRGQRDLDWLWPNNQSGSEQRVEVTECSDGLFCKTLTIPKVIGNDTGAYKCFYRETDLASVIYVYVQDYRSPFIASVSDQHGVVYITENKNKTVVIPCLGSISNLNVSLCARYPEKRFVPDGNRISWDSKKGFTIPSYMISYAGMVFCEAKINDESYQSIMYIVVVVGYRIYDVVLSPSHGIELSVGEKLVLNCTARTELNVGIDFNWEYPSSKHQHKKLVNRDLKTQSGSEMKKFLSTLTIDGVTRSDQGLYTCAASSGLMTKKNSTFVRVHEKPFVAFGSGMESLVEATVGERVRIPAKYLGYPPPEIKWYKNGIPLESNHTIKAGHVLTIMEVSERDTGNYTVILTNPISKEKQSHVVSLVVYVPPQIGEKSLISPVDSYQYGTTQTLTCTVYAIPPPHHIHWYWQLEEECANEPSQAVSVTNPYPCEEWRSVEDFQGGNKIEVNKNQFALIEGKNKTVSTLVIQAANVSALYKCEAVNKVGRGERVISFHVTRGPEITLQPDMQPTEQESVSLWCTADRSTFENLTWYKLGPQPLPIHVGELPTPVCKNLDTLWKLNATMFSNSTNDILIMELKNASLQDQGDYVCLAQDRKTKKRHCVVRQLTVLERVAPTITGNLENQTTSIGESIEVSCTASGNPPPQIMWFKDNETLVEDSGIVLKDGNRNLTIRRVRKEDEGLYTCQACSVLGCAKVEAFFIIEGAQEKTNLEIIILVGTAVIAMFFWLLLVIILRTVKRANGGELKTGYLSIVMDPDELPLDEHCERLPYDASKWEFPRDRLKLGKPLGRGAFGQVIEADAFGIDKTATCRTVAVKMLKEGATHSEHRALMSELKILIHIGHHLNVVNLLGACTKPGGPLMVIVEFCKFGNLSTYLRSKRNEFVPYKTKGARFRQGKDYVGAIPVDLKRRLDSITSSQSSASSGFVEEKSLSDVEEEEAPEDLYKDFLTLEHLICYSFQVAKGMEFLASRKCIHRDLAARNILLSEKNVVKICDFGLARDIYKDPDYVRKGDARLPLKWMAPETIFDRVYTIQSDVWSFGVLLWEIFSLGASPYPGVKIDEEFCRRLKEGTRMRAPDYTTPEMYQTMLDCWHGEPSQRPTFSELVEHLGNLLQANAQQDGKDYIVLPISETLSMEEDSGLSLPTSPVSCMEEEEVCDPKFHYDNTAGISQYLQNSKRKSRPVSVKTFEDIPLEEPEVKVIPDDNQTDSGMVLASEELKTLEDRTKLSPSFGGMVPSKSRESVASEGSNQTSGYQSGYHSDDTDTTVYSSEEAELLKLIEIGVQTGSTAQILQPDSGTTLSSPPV
assay_endpoint: pIC50
Here pIC50 is given on a logarithmic scale as minus log10 of the concentration in mol/L.

Kindly note: Vascular endothelial growth factor receptor 2 (Homo sapiens), COc1cc(N2CCC(N3CCN(C)CC3)CC2)ccc1Nc1ncc(Cl)c(Nc2ccccc2P(C)(C)=O)n1 , pIC50 value reported: 6.09

* * *

# test_system: UniProtKB Q06187
assay_endpoint: IC50 (nM)
Quick note: give the figure in nM, leave out the unit.

The molecule COc1cc(N2CCC(N3CCN(C)CC3)CC2)ccc1Nc1ncc(Cl)c(Nc2ccccc2P(C)(C)=O)n1 on UniProtKB Q06187: IC50 was 674

* * *

# test_system: Fibroblast growth factor receptor 3 (Homo sapiens)
assay_endpoint: IC50 (nM)
Give the value, in units of nM, as a plain number.

The reported IC50 value, Fibroblast growth factor receptor 3 (Homo sapiens), for COc1cc(N2CCC(N3CCN(C)CC3)CC2)ccc1Nc1ncc(Cl)c(Nc2ccccc2P(C)(C)=O)n1 reads 358

* * *

# assay_details: Protein binding in human plasma at 600 mg, administered twice a day
# Assay type: ADME, cell-free
# assay_conditions: read-out: PPB (converted)
assay_endpoint: fraction unbound
# output: bare number, no unit

fraction unbound recorded for this molecule, CCc1cc2c(cc1N1CCC(N3CCOCC3)CC1)C(C)(C)c1[nH]c3cc(C#N)ccc3c1C2=O , is 0.003

* * *

# test_system: Serine/threonine-protein kinase BRSK1 (Homo sapiens, UniProt Q8TDC3)
assay_endpoint: pIC50
Scale for pIC50: -log10 of concentration given in mol/L; no unit attached.

Sure, the documented pIC50 for COc1cc(N2CCC(N3CCN(C)CC3)CC2)ccc1Nc1ncc(Cl)c(Nc2ccccc2P(C)(C)=O)n1 is 6.47

* * *

# test_system: Fibroblast growth factor receptor 2 (Homo sapiens, UniProt P21802)
assay_endpoint: pIC50
Worth noting: pIC50 values are minus log10 of concentrations stated in mol/L.

The recorded pIC50 for entry COc1cc(N2CCC(N3CCN(C)CC3)CC2)ccc1Nc1ncc(Cl)c(Nc2ccccc2P(C)(C)=O)n1 equals 6.64

* * *

# test_system: Receptor tyrosine-protein kinase erbB-2 (Homo sapiens, UniProt P04626)
# Sequence (P04626 whole entry): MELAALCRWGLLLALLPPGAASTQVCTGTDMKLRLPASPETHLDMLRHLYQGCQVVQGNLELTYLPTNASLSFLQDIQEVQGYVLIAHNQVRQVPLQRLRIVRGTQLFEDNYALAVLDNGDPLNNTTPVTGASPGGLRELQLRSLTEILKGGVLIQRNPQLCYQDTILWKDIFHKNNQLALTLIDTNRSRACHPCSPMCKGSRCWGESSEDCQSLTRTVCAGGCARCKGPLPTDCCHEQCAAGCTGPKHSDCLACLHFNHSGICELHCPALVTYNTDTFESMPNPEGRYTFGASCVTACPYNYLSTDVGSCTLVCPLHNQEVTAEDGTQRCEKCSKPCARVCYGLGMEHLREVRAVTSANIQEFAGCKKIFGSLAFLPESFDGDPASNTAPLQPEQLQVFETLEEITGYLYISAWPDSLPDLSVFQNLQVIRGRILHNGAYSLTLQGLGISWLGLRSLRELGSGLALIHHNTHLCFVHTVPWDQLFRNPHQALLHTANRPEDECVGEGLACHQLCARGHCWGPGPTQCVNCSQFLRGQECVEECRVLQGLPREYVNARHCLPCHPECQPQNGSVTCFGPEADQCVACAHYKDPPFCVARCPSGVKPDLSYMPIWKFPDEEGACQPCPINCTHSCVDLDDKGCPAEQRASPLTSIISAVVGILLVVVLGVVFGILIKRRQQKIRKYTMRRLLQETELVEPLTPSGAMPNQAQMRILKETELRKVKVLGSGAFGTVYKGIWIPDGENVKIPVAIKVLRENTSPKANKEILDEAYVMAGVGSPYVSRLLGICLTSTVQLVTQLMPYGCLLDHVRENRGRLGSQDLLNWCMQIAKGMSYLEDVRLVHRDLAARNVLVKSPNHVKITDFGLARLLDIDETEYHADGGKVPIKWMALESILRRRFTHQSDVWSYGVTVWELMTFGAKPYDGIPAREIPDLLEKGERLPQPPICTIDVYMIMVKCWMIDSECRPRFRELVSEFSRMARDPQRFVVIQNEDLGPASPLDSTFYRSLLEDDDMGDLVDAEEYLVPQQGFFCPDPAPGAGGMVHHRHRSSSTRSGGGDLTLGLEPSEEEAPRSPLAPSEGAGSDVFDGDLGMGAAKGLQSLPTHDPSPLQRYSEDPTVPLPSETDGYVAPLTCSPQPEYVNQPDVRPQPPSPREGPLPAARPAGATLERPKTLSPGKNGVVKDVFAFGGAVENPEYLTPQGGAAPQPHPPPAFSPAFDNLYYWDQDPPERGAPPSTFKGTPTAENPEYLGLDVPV
assay_endpoint: IC50 (nM)
Report the value in nM with no unit label.

# IC50 measured on Receptor tyrosine-protein kinase erbB-2 (Homo sapiens, UniProt P04626) for item COc1cc(N2CCC(N3CCN(C)CC3)CC2)ccc1Nc1ncc(Cl)c(Nc2ccccc2P(C)(C)=O)n1 = 42

* * *

# test_system: Tyrosine-protein kinase Yes (Homo sapiens)
# Sequence (P07947 whole entry): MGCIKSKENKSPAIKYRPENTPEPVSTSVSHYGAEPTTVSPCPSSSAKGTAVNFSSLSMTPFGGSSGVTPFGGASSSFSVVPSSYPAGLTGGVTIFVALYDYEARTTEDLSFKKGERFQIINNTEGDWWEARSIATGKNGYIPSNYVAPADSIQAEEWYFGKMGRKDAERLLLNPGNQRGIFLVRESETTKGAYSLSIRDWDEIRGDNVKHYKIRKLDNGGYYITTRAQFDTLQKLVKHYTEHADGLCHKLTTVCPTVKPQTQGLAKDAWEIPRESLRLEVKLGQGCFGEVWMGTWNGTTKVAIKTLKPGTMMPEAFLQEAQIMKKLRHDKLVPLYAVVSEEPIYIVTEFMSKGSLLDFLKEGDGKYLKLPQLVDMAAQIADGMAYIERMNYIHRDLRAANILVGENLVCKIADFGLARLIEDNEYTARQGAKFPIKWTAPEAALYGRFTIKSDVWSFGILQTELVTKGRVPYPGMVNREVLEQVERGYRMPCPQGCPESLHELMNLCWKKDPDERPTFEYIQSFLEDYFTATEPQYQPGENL
assay_endpoint: IC50 (nM)
Your answer should be a plain number; it is taken to be in nM.

IC50 value, target or system Tyrosine-protein kinase Yes (Homo sapiens), for COc1cc(N2CCC(N3CCN(C)CC3)CC2)ccc1Nc1ncc(Cl)c(Nc2ccccc2P(C)(C)=O)n1 : 19

* * *

# test_system: Serine/threonine-protein kinase 4 (Homo sapiens, UniProt Q13043)
# Sequence (Q13043 whole entry): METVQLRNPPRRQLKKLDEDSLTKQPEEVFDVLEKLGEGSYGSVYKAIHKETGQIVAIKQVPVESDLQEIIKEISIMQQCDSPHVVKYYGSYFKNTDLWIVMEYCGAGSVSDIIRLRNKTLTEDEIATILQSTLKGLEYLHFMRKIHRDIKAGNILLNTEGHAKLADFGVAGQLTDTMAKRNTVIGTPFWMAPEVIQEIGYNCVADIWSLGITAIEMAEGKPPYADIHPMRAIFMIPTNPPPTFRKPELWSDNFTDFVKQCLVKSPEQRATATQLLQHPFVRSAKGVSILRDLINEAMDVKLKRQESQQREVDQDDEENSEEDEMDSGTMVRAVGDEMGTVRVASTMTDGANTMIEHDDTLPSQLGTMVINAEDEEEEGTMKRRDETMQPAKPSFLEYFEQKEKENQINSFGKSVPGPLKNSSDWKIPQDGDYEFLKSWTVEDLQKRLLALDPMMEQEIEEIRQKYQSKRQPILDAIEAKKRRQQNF
pIC50: −log10 of the molar value.
assay_endpoint: pIC50

According to the records, this molecule COc1cc(N2CCC(N3CCN(C)CC3)CC2)ccc1Nc1ncc(Cl)c(Nc2ccccc2P(C)(C)=O)n1 [BRIGATINIB] displays pIC50 of < 6.00
